Here, each record is paired with measured IC50 data.
Target: Cannabinoid receptor 1 (Rattus norvegicus)
Sequence (P20272 whole entry): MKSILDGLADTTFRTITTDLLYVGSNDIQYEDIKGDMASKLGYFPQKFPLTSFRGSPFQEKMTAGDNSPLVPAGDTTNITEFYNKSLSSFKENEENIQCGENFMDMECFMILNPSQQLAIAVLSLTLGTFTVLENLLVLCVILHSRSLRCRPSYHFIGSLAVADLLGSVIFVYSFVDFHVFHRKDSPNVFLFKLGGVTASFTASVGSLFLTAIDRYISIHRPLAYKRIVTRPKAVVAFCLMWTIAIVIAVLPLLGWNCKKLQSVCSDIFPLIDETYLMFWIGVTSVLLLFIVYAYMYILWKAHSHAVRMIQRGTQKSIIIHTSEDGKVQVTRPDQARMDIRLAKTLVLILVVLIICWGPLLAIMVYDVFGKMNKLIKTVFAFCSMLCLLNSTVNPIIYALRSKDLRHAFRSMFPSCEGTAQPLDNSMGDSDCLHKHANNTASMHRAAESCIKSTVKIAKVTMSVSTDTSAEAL
Assay: Binding affinity to CB1 receptor in rat spleen membrane
Assay type: cell membranes

Reference set, count: 2
> print(dat)
                         structurestring                                measuredon  measurement
1     O=C(CCCCCCCCCCOc1cc(O)cc(O)c1)NCCO  Cannabinoid receptor 1 (Rattus norvegicus)      > 10 µM
2  O=C(CCCCCCCCCCOc1cc(O)cc(O)c1)NCC1CC1  Cannabinoid receptor 1 (Rattus norvegicus)      > 10 µM

With those in mind, consider the next compound.
*Q* Entry "O=C(CCCCCCCCCCOc1cc(O)cc(O)c1)NC1CC1" : reported IC50 = ?
*A* > 10 µM

---

Target: Cannabinoid receptor 2 (Homo sapiens, UniProt P34972)
Sequence (P34972 whole entry): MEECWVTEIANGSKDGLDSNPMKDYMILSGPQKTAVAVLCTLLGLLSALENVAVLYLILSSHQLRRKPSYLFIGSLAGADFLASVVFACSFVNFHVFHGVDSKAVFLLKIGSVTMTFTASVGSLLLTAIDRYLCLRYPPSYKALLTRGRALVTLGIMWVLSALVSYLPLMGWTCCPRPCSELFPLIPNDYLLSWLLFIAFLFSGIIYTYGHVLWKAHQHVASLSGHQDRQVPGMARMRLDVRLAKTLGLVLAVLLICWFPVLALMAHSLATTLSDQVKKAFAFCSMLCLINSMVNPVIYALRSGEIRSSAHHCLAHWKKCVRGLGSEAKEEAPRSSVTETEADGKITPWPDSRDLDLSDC
Assay: Binding affinity to human recombinant CB2 receptor expressed in african green monkey COS cells by radioligand binding assay
Type: cell-based
Conditions: read-out: Ki
# log10(Ki) values compiled below
All values: base-10 log of Ki in nM.

> print(dat)
                            structurestring  valuekind  measurement
1  CCCCCCC(C)(C)c1cc(O)cc(OCCCCCCCCCCC(=O)NCCO)c1  log10(Ki)         1.48
2  CCCCCCC(C)(C)c1cc(O)cc(OCCCCCCCCCCC(=O)NCc2ccc(O)c(OC)c2)c1  log10(Ki)         2.71
3  CCCCCCC(C)(C)c1cc(O)cc(OCCCCCCCCCCC(=O)NCC2CC2)c1  log10(Ki)         1.54
4  CCCCCCC(C)(C)c1cc(O)cc(OCCCCCCCCCCC(=O)NC2CC2)c1  log10(Ki)         0.90
5  CCCCCCC(C)(C)c1cc(O)cc(OCCCCCCCCCCCC(=O)NC2CC2)c1  log10(Ki)         1.30
6  CC(C)CCOc1cc(O)cc(OCCCCCCCCCCC(=O)NC2CC2)c1  log10(Ki)         2.11

As a next step, examine the compound that follows.
*Q* Report log10(Ki) for "CCCCCCCOc1cc(O)cc(OCCCCCCCCCCC(=O)NCCO)c1" please.
*A* 3.38

---

Molecular target: Cannabinoid receptor 1 (Homo sapiens, UniProt P21554)
Sequence (P21554 whole entry): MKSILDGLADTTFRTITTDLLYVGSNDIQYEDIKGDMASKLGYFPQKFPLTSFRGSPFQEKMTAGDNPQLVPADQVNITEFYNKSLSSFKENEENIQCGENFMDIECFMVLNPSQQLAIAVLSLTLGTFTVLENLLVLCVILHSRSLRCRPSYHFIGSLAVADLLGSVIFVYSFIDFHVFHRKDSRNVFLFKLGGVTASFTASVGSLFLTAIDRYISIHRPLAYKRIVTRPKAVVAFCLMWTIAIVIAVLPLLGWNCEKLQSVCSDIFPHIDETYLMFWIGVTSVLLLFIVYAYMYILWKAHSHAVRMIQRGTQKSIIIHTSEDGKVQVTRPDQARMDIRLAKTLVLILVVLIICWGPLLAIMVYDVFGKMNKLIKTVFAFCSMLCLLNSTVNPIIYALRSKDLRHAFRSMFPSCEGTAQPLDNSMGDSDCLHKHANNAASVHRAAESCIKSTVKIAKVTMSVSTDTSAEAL
Experiment: Binding affinity to human recombinant CB1 receptor expressed in african green monkey COS cells by radioligand binding assay
Type: cell-based
Conditions: read-out: Ki
valueKind: Ki (nM)
Give just the number in nM; leave the unit off.

> print(dat)
                            structurestring  valuekind  measurement
1  CCCCCCC(C)(C)c1cc(O)cc(OCCCCCCCCCCC(=O)NCCc2ccc(O)c(O)c2)c1         Ki         3400
2  CCCCCCC(C)(C)c1cc(O)cc(OCCCCCCCC(=O)NCCO)c1         Ki           56
3  CCCCCCC(C)(C)c1cc(O)cc(OCCCCCCCCCCC(=O)NCCO)c1         Ki          310
4  CCCCCCC(C)(C)c1cc(O)cc(OCCCCCCCCCCCC(=O)NC2CC2)c1         Ki          170

*Q* Can you share its Ki? I mean this molecule: "CC(C)CCOc1cc(O)cc(OCCCCCCCCCCC(=O)NCC2CC2)c1"
*A* 2300

*Q* Please report the recorded Ki for "CCCCCCC(C)(C)c1cc(O)cc(OCCCCCCCCCCC(=O)NCc2ccc(O)c(OC)c2)c1" .
*A* 2820

*Q* Using the record for "CCCCCCC(C)(C)c1cc(O)cc(OCCCCCCCC(=O)NCC2CC2)c1" , report its Ki.
*A* 100

*Q* Any idea what Ki was measured for "CC(C)CCOc1cc(O)cc(OCCCCCCCCCCC(=O)NC2CC2)c1" ?
*A* 220

*Q* Reported Ki for "CCCCCCCOc1cc(O)cc(OCCCCCCCCCCC(=O)NC2CC2)c1" : what is it?
*A* 2220

*Q* So what's the measured Ki for this one? "CCCCCCC(C)(C)c1cc(O)cc(OCCCCCCCC(=O)NC2CC2)c1"
*A* 5.6

*Q* Param item = "CCCCCCC(C)(C)c1cc(O)cc(OCCCCCCCCCCC(=O)NCC2CC2)c1" ; retrieve measured Ki.
*A* 1000

*Q* For "CC(C)CCOc1cc(O)cc(OCCCCCCCCCCC(=O)NCCO)c1" , what is its reported Ki?
*A* 2880

*Q* Which Ki value belongs to "CCCCOc1cc(O)cc(OCCCCCCCCCCC(=O)NCCO)c1" ?
*A* 2410

*Q* Using the record for "CCCCCCC(C)(C)c1cc(O)cc(OCCCCCCCCCCCC(=O)NCCO)c1" , report its Ki.
*A* 820
